# System: Mycobacterium tuberculosis variant bovis BCG
# Measurement notes: microbe, parasite or virus in culture
# Type: functional
Observation type: MIC90 (µM)
One number for each entry, in µM.

In [3]: df
Out[3]:
                                   compound  recorded_measurement
0  C=CCNCCS(=O)(=O)c1cccc(Nc2ccc(-c3ccc(OC)nc3)cn2)c1                   1.3
1  CCOc1ccc(C(=O)Nc2cc(Cl)c3c(c2)CNCC3)cc1C(C)=O                   9.2
2  CC(C)Sc1ccc(C(=O)Nc2nc(-c3ccccn3)cs2)cc1                   1.2
3  COc1ccc(-c2nc(CN3CCCC3c3cccs3)cs2)cc1OC (stereo not drawn)                   1.4

Hi there! I need MIC90 for each item below, if you can.
1. O=C(NC1CCN(Cc2ccsc2)C1)c1sccc1-c1cccc(F)c1 (stereo not drawn)
2. O=C(NCc1ccc2c(c1)OCO2)c1c(C(F)(F)F)nc2ccccn12
3. COc1cccc(CNc2nc(C)cc(-c3cccc(CN(C)C)c3)n2)c1

1. 7.3
2. 3.4
3. 7

Source: ChEMBL document CHEMBL2095176
